The measurements presented in this section are drawn from paper PMC9399681.

Recorded Kd for the following binders
Target: mASH1L PHD domain (residue 2573–2624) M2588A (mouse, UniProt Q99MY8 2573-2624, M2588A)
Assay: ITC
Primed or numbered codes have the meaning given here. Where no end group is shown, it is not given here. [ ]: non-standard residue; d: D form. Me3″ = trimethylation (trimethyl-lysine); Lys(Me2) = CN(C)CCCC[C@H](N)C(=O)O

These recorded examples may help you get a feel for the data.
BINDER	RECORDED RESULT
ARTK(Me3″)QTARKSTGGKA (peptide, UniProt P68431 2-16, looked up, histone H3, residues 1-15; also called H3K4me3; source: synthetic peptide (MIMOYOPES, Wuxi, China)) [histone H3 (1–15) peptide, trimethylated on lysine 4]	> 200 µM
ARTK(Me)QTARKSTGGKA (peptide, UniProt P68431 2-16, looked up, histone H3, residues 1-15; also called H3K4me1; H3K4me; source: synthetic peptide (MIMOYOPES, Wuxi, China)) [histone H3 (1–15) peptide, monomethylated on lysine 4]	> 200 µM

Attention now turns to another entry.
**Q:** Fill in: Kd of ART[Lys(Me2)]QTARKSTGGKA (also called H3K4me2; H3K4me2 peptide (1–15); source: synthetic peptide (MIMOYOPES, Wuxi, China)) [histone H3 (1–15) peptide, dimethylated on lysine 4] is ___
**A:** > 200 µM
